Source of measurements: patent US20210347865A1

# TGT: T1, native human ApoC3 (human, UniProt P02656 21-99, biotinylated in the captured-antigen assays (Tables 6 and 8); sites not stated)
# T1 construct: also called nhuApoC3; native huApoC3
# PROTOCOL SUMMARY: SPR, biotinylated antigen captured on streptavidin chip, IgG as analyte, pH 7.4
MEASUREMENT NAME: koff (s⁻¹)
Write the answer as a number in s⁻¹, unit excluded.

BINDER	VALUE REPORTED
29G02 IgG (antibody, V domains shown) VH: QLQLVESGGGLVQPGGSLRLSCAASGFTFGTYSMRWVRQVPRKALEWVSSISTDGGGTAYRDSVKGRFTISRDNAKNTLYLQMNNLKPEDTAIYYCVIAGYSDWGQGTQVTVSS VL: DVVLTQTPGSLSVVPGESASISCKATQSLVHIDGKTYLYWLLQKPGQSPQRLIYQVSTRDSGVPDRFTGAGSGAEFTLKISGVKAEDAGVYYCAQDTYSTKTFGQGTKLEIK	3.3e-05
29A06 IgG (antibody, V domains shown) VH: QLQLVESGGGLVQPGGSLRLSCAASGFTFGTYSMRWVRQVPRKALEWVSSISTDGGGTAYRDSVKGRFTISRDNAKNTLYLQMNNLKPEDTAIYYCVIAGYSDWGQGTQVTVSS VL: DVVLTQTPGSLSVVPGESASISCKASQNLVHSNGKTYLYWLLQKPGQSPQRLIYQVSNRGSEVPDRFTGSGSGTDFTLKISGVKAEDAGVYYCAQGTYWPKTFGQGTKLEIK	4.2e-05
5E5 WT IgG (antibody, V domains shown, Full-length IgG captured by an anti-human Fc antibody) VH: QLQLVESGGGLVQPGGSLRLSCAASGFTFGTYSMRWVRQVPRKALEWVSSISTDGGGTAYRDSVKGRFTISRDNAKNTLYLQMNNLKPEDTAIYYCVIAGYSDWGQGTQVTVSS VL: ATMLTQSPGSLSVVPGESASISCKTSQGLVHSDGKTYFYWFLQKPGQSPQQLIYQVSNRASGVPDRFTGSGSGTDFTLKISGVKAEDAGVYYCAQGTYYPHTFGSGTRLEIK	1.8e-05

Let's switch to this binder now.
Data request: # input binder: 29G11 IgG (antibody, V domains shown) VH: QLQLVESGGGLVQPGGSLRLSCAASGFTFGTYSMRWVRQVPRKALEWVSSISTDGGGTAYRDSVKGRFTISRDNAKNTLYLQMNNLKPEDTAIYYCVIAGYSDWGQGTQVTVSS VL: DVVLTQTPGSLSVVPGGSASISCKASQSLVYSDGKTYLYWLRQKPGQSPQRLIYQVSNRPSGVPDRFTGSGSGTDFTLKISGVKAEDAGVYYCAQDTYSTKTFGQGTKLEIK ; wanted: its koff
Data returned: 7.3e-05
